Values from ChEMBL document CHEMBL1772966

Tested on: HT-29
test: Anticancer activity against human HT-29 cells
Format: functional, cell-based
assay-metric: pIC50
Conceptually, pIC50 converts a concentration in mol/L into minus its log10.

Find the measured pIC50: item O=C1/C(=C/c2ccc([N+](=O)[O-])cc2)CN(C(=O)CCSCCO)C/C1=C\c1ccc([N+](=O)[O-])cc1 , target or system HT-29.
7.00

Follow-up entry: COc1ccc(/C=C2\CN(C(=O)CCSCCS(=O)(=O)O)C/C(=C\c3ccc(OC)cc3)C2=O)cc1
4.38

Follow-up entry: O=c1[nH]cc(F)c(=O)[nH]1
4.99

Follow-up entry: O=C1/C(=C/c2ccc(Cl)cc2)CN(C(=O)CCSCCO)C/C1=C\c1ccc(Cl)cc1
6.59

Follow-up entry: N[C@@H](Cc1ccc(N(CCCl)CCCl)cc1)C(=O)O
4.33

Follow-up entry: O=C1/C(=C/c2ccc(Cl)cc2)CN(C(=O)CCSCCS(=O)(=O)O)C/C1=C\c1ccc(Cl)cc1
4.60

Follow-up entry: COc1ccc(/C=C2\CN(C(=O)CCSCCO)C/C(=C\c3ccc(OC)cc3)C2=O)cc1
5.62
